Below is a list of entries, each paired with its recorded AC50 value.
# assayed_system: Cytochrome P450 3A4 (Homo sapiens, UniProt P08684);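 note: confirmatory qHTS run detecting inhibitors and substrates of CYP3A4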
# Sequence (P08684 whole entry): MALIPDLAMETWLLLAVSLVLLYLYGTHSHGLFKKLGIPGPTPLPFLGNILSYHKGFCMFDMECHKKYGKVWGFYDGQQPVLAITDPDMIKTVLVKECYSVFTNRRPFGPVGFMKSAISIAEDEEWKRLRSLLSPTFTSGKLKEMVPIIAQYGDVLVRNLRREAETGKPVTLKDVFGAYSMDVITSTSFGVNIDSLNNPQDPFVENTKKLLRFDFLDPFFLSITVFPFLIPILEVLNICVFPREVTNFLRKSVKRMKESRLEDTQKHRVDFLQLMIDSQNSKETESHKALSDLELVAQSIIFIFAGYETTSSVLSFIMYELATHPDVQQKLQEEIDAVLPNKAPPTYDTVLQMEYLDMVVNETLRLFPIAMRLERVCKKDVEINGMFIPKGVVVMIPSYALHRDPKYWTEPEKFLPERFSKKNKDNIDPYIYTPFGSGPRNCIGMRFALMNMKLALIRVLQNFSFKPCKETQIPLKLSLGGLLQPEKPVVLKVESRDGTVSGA
# experimental_parameters: Potency

In the examples that follow, each entry is paired with its recorded AC50.
| molecule | assayed_system | AC50 |
| --- | --- | --- |
| C=C/C1=C/Cc2ccccc2C(C[N+](=O)[O-])C(C(=O)OC)(C(=O)OC)C1 (centres undefined) | Cytochrome P450 3A4 (Homo sapiens, UniProt P08684) | 3.16 µM (inconclusive) |
| COC(=O)CC[C@@H](C)[C@H]1CC[C@H]2[C@@H]3[C@H](O)C[C@@H]4C[C@H](O)CC[C@]4(C)[C@H]3C[C@H](O)[C@]12C | Cytochrome P450 3A4 (Homo sapiens, UniProt P08684) | 31.6 µM (inconclusive) |

Per the record, "CCC1=C2CC[C@H]3C(=O)NC(=O)[C@H]3[C@H]2[C@@]2(C)/C(=N/CC3CC3)OC(=O)N2C1=O" has AC50 of 25.1 µM (inconclusive)

Value of measured AC50 for the entry "CC(C)(c1ccccc1)c1ccc(O)cc1" : 20 µM (inconclusive)

###

# assayed_system: Dual specificity tyrosine-phosphorylation-regulated kinase 1A (Rattus norvegicus)
# Type: biochemical, Homo sapiens
The source made the active and inactive calls.
parameter: AC50

Take a look at these entries with their results.
| smiles_data | AC50 |
| --- | --- |
| CC[C@@H](C)[C@H](CNC)NC[C@@H](Cc1cccc2ccccc12)NCCc1cccc(C(F)(F)F)c1 | 79 µM (active) |
| Oc1ccc(-c2csc(-c3ccccc3)n2)cc1O | 6.72 µM (active) |
| Cc1ccc(S(=O)(=O)/N=C2\C=C(Nc3cccc(C(=O)O)c3)C(=O)c3ccccc32)cc1 | 2.57 µM (active) |

Lab note: "COc1ccc(/C=C/C(=O)Nc2cccc(C(C)=O)c2)cc1" gave AC50 of 3.68 µM (active)

###

# measurement_notes: HIV-1 AD8 envelope cell-cell fusion blockers – cherry-pick, dose response (AID 652062);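 note: luciferase signal from cell-cell fusion driven by HIV-1 clade B AD8 Env; potency is for inhibitors of fusion seen as a drop in luminescence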
# Type: functional, cell-based
Activity calls are given as the source filed them.
Quick reference for AC50 among some molecules

| molecule | observed_value |
| --- | --- |
| Cc1ccc(S(=O)(=O)Nc2ccc3c(c2)CC(=O)N([C@H](C)CO)C[C@H](C)[C@H](CN(C)S(=O)(=O)c2ccc(F)cc2)O3)cc1 | 4.36 µM (active) |
| C[C@@H]1CN([C@@H](C)CO)C(=O)Cc2cc(NS(=O)(=O)c3cccs3)ccc2O[C@H]1CN(C)Cc1ccc(C(F)(F)F)cc1 | 25.8 µM (active) |
| COc1ccccc1C(=O)Nc1nc2ccccc2[nH]1 | 1.41 µM (active) |

So, COc1cc(NC2c3ccccc3C(=O)N2Cc2ccccc2)cc(OC)c1OC (centres undefined) ? Its AC50 was 7.97 µM (active)

###

# System: Streptococcus sp. 'group A'
# measurement_notes: Streptococcus pyogenes SK(-)GAS viability under kanamycin – luminescence, BacTiterGlo, confirmation, counter-screen for streptokinase expression inhibitor project, dose response (AID 1900)
# Format: functional, organism-based
Calls of active or inactive are those of the source.
parameter: EC50

Field: example entries. Status: answers known.
| molecule | EC50 |
| --- | --- |
| CCOc1cc(N2CCOCC2)c(OCC)cc1NC(=O)C1=NN(c2cccc(C)c2)C(=O)CC1 | 13.8 µM (active) |
| Cc1ccc2c(Cl)cc(Cl)c(OCC(=O)NC(C)(C)C)c2n1 | 12.7 µM (active) |

# molecule "COc1ccc(C(=O)NNC(=S)NC(=O)c2cccs2)cc1" ; its EC50 = 3.71 µM (active)

CCC1(C)Cc2c(sc3nc(SC)nc(S)c23)CO1 (configuration not stated) has a reported EC50 of 1.84 µM (active)

For "Oc1ccccc1N=Nc1ccccc1O" the molecule record lists EC50 as 0.6 µM (active)

The recorded EC50 for entry COc1ccc2cc3c(N)nn(C(=O)C4CCC(C(C)(C)C)CC4)c3nc2c1 (configuration not stated) equals 2.15 µM (active)

The molecule listed as "Clc1ccc(-c2ccc(/C=N/Nc3cc(N4CCOCC4)nc(N4CCOCC4)n3)o2)cc1" has a reported EC50 of 19.4 µM (active)
